Molecular target: GDP-bound KRAS protein (aa 1-169), containing both G12D and C118A amino acid substitutions (Homo sapiens, UniProt P01116, C118A/G12D)
Sequence (P01116 1-169 isoform P01116-2 G12D/C118A): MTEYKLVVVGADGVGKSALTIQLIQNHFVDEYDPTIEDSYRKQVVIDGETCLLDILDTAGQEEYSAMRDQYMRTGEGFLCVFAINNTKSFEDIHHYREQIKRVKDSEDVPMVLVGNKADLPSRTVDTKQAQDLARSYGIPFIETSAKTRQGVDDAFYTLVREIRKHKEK
Assay: KRAS G12D Coupled Nucleotide Exchange Assay
Format: biochemical
METRIC_NAME: IC50 (nM)

A = CCc1c(F)ccc2cc(N)cc(-c3c(F)cc4c(N5CCOCC(C)(O)C5)nc(OC[C@@]56CCCN5C[C@H](F)C6)nc4c3F)c12 (single isomer, unassigned) [Example 72]
B = C#Cc1c(F)ccc2cccc(-c3c(F)cc4c(N5CCC[C@@](C)(O)C5)nc(OC[C@@]56CCCN5C[C@H](F)C6)nc4c3F)c12 (single isomer, unassigned) [Example 67]
Which entry has a larger number for IC50, A or B ? // return label of chosen record
B

P = CCc1c(F)ccc2cc(O)cc(-c3ccc4c(N5CCCC(O)(C(F)F)C5)nc(OC[C@@]56CCCN5C[C@H](F)C6)nc4c3F)c12 (single isomer, unassigned) [Example 23]
Q = C/C=C\c1c(Cl)cc2[nH]ncc2c1-c1c(F)cc2c(N3CCC[C@](O)(C(F)F)C3)nc(OC[C@@]34CCCN3C[C@H](F)C4)nc2c1F (single isomer, unassigned) [Example 112]
R = CCc1c(F)ccc2cc(O)cc(-c3c(F)cc4c(N5C[C@@H]6CO[C@@H](C6)C5)nc(OC[C@@]56CCCN5C[C@H](F)C6)nc4c3F)c12 (racemic) [Example 36]
S = CCc1c(F)ccc2cc(N)cc(-c3c(F)cc4c(N5CCCC6(CNC(=O)O6)C5)nc(OC[C@@]56CCCN5C[C@H](F)C6)nc4c3F)c12 (stereo partly drawn) [Example 73]
Rank ascending by IC50. Field: ranking. Enter the labels in the order requested.
S, P, Q, R

A = Oc1cc(-c2c(F)cc3c(N4CCC[C@]5(CCO5)C4)nc(OC[C@@]45CCCN4C[C@H](F)C5)nc3c2F)c2c(F)c(F)ccc2c1 [Example 79]
B = CCc1c(F)ccc2cc(O)cc(-c3c(F)cc4c(N5CCCC6(CCO6)C5)nc(OC[C@@]56CCCN5C[C@H](F)C6)nc4c3F)c12 (single isomer, unassigned) [Example 38]
C = CCc1c(F)ccc2cc(O)cc(-c3ccc4c(N5CCOCC(C)(O)C5)nc(OC[C@@]56CCCN5C[C@H](F)C6)nc4c3F)c12 (single isomer, unassigned) [Example 29]
List items by IC50 in falling order. Sort the labels as requested; that list is your answer.
B, A, C
(B: 12 nM, A: 5 nM, C: 1 nM)
